Documented Approximate therapeutic index across a set of molecules
System: Sprague-Dawley rats
Test: animal or person
Conditions: rats

Reference set, count: 10
>>> value_reported("C=C=CC1(OC(=O)c2c(F)c(F)nn2[C@H](C)c2ccccc2)COC1")
">14"
>>> value_reported("CCOC(=O)c1cc(F)nn1[C@H](C)c1ccccc1")
">2"
>>> value_reported("COC1CC(OC(=O)c2c(F)cnn2C(C)c2ccccc2)C1 (stereo not shown)")
">10"
>>> value_reported("CC(=O)C1=C(OC(=O)c2c(F)cnn2[C@H](C)c2ccccc2)CCC1")
">5"
>>> value_reported("CC#CC(C)(C)OC(=O)c1ccnn1[C@H](C)c1ccccc1")
">4"
>>> value_reported("C=CC1(OC(=O)c2cc(F)nn2[C@H](C)c2ccccc2)COC1")
">7"
>>> value_reported("C=C=CC1(OC(=O)c2c(Cl)cnn2[C@H](C)c2ccccc2)COC1")
">5"
>>> value_reported("CC#CCOC(=O)c1ccnn1[C@H](C)c1ccccc1")
">5"
>>> value_reported("C[C@H](c1ccccc1)n1nccc1C(=O)OCC1CC1")
">6"
>>> value_reported("COC(=O)C1=C(OC(=O)c2cc(F)nn2[C@H](C)c2ccccc2)CCCC1")
">9"

get_value(item= C=C=CC1(OC(=O)c2ccnn2[C@H](C)c2ccccc2)COC1 , readout=Approximate therapeutic index) returns >31

get_value(item= C=CC1(OC(=O)c2ccnn2[C@H](C)c2ccccc2)COC1 , readout=Approximate therapeutic index) returns >6

get_value(item= C=C=CC1(OC(=O)c2cc(F)nn2[C@H](C)c2ccccc2)COC1 , readout=Approximate therapeutic index) returns >16

get_value(item= CC#CC(C)(C)OC(=O)c1c(F)cnn1[C@H](C)c1ccccc1 , readout=Approximate therapeutic index) returns >10

get_value(item= C#CC1(OC(=O)c2cc(F)nn2[C@H](C)c2ccccc2)COC1 , readout=Approximate therapeutic index) returns >6

get_value(item= CCOC(=O)c1ccnn1[C@H](C)c1ccccc1 , readout=Approximate therapeutic index) returns >8

====

System: Sprague-Dawley rats
Type: in vivo
Settings: tail vein
ASSAY ENDPOINT: Minimal lethal dose

Reference set, count: 9
>>> value_reported("C[C@H](c1ccccc1)n1cncc1C(=O)COC(C)(C)C")
">10.8 mg/kg"
>>> value_reported("CC#CCC(=O)c1cncn1[C@H](C)c1ccccc1")
">13.61 mg/kg"
>>> value_reported("CC1OC1C(=O)c1cncn1[C@H](C)c1ccccc1 (stereo partly shown)")
">13.61 mg/kg"
>>> value_reported("CCC(CC)OCC(=O)c1cncn1[C@H](C)c1ccccc1")
">15.2 mg/kg"
>>> value_reported("C#CCOCC(=O)c1c(F)ncn1[C@H](C)c1ccccc1")
">4.0 mg/kg"
>>> value_reported("C[C@H](c1ccccc1)n1cncc1C(=O)COCCC1CCC1")
">8.3 mg/kg"
>>> value_reported("CC(=O)COCC(=O)c1cncn1[C@H](C)c1ccccc1")
">12.5 mg/kg"
>>> value_reported("CCOC(=O)c1cncn1C(C)c1ccccc1 (stereo not shown) [Etomidate, reference compound]")
"13.8 mg/kg"
>>> value_reported("CCOCC(=O)c1c(F)ncn1[C@H](C)c1ccccc1")
">8.9 mg/kg"

get_value(item= COCC(=O)c1c(F)ncn1[C@H](C)c1ccccc1 , readout=Minimal lethal dose) returns >6.6 mg/kg
